- test.protocol: Oral bioavailability in monkey
- Assay type: ADME, organism-based, Macaca mulatta
- protocol.conditions: rhesus monkey, in vivo
attribute.measured: bioavailability (%)
One number for each entry, in %.

Request: For the molecule shown here, CC(C)n1nc2c(c1-c1ccc(F)cc1)CCNCC2 , give the reported bioavailability.
Result: 72

====

- target.desc: 5-hydroxytryptamine receptor 2C (Homo sapiens)
- Sequence (P28335 whole entry): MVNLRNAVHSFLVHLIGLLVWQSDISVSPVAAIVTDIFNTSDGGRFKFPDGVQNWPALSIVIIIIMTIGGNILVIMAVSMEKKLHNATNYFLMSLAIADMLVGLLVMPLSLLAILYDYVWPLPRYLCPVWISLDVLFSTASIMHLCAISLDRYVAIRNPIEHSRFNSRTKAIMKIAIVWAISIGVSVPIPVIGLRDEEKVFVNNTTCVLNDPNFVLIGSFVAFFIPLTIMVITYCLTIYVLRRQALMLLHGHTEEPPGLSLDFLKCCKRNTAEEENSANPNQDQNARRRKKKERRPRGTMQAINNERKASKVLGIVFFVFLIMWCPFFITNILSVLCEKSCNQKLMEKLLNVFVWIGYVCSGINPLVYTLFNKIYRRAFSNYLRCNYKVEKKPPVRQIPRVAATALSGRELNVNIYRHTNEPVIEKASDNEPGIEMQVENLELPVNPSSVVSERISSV
Exercise: for every item that follows, state its recorded Ki.
One number for each entry, in nM.

Request: For the compound shown here, CCn1nc2c(c1-c1ccccc1)CCNCC2 , give the reported Ki.
Result: 1200

More entries:
Request: For the compound shown here, CC(C)n1nc2c(c1-c1ccc(F)cc1)CCNCC2 , give the reported Ki.
Result: 49
